Just for reference, the supplement of paper PMC11061612 is where these values come from.

# Tested on: PWR-1E (Non-Cancerous)
# Protocol Summary: combination Emax (second highest fraction inhibited in the dose matrix, 72 h); higher = more inhibition; extreme values may be limits of the assay
Quick list: combination Emax per entry.

INSERT INTO results (molecule, reading) VALUES
  ('COc1nnc2ccc(N3CCC(c4ccc(OCCN5CCN(C)C(=O)[C@H]5C)cc4)CC3)nn12 [AZD5153] + Cn1cnc2c(F)c(Nc3ccc(Br)cc3Cl)c(C(=O)NOCCO)cc21 [Selumetinib] (first compound max 1 µM, 7x7, partner max 10 µM)', 0.777);

stdin: Identify measured combination Emax obtained with PWR-1E (Non-Cancerous) for CN(CCO)CC[C@H](CSc1ccccc1)Nc1ccc(S(=O)(=O)NC(=O)c2ccc(N3CCC([C@@H](O)c4ccccc4-c4ccc(Cl)cc4)CC3)cc2)cc1S(=O)(=O)C(F)(F)F [AZD4320] + C[C@@H](Nc1cc(F)cc(F)c1)c1cc(C(=O)N(C)C)cc2c(=O)cc(N3CCOCC3)oc12 [AZD8186] (first compound max 1 µM, 7x7, partner max 3 µM) .
stdout: 0.592

stdin: Give combination Emax only, for COc1nnc2ccc(N3CCC(c4ccc(OCCN5CCN(C)C(=O)[C@H]5C)cc4)CC3)nn12 [AZD5153] + Cc1c2c(nn1C)CSCc1cc(n(C)n1)CSc1cc(c3ccccc3c1)OCCCc1c(C(=O)O)n(C)c3c-2c(Cl)ccc13 [AZD5991] (first compound max 1 µM, 7x7, partner max 1 µM) , using PWR-1E (Non-Cancerous) data.
stdout: 0.837
